Tested on: DERL-7 (IL-2 2.5 ng/mL)
assayInfo: relative IC50 (inflection point of fitted viability curve, relative to fitted max inhibition); higher = less sensitive
assayConditions: 72 h
Label scheme for relative IC50: lower than 90 nM is 0.0, 90 nM and above is 1.0.

structureNotation | targetOfAssay | classification
C1=N/C2=N/c3ccc(OCCN4CCCC4)c(c3)COC/C=C/COCc3cccc(c3)C(=C1)N2 | DERL-7 (IL-2 2.5 ng/mL) | 1.0
Cn1cc(CNCC2CCN(c3ncc(C(=O)NO)cn3)CC2)c2ccccc21 | DERL-7 (IL-2 2.5 ng/mL) | 0.0
COc1ccc(-c2ccc3ncc4c(c3c2)n(-c2ccc(N3CCNCC3)c(C(F)(F)F)c2)c(=O)n4C)cn1 | DERL-7 (IL-2 2.5 ng/mL) | 0.0

Does the reported relative IC50 for NC(=O)Nc1sc(-c2ccc(F)cc2)cc1C(N)=O fall at or above the 90 nM mark? 1.0

====

Provide the recorded percent inhibition of viability for the entries that follow.
Test system: normal primary NK cells, pool 3 (3 donors) (IL-2 2.5 ng/mL)
assayInfo: percent inhibition of viability; higher = more inhibition
assayConditions: 72 h; 25 nM
Record the result as number plus unit.

Some solved cases for reference:
molecule | result
O=C(c1cccc(Cl)c1F)N1CCN(Cc2cccc(Nc3nccs3)n2)CC1 [MK-8745] (max concentration tested 2500 nM) | -11.6%
OCCn1cc(-c2cnc3nnn(Cc4ccc5ncccc5c4)c3n2)cn1 (max concentration tested 2500 nM) | 7.9%

For the record CN1CCN(C2CCN(C(=O)Nc3cc(Oc4ccc(NC(=O)C5(C(=O)Nc6ccc(F)cc6)CC5)c(F)c4)ccn3)CC2)CC1 [Golvatinib] (max concentration tested 2500 nM) , what value of percent inhibition of viability is listed for normal primary NK cells, pool 3 (3 donors) (IL-2 2.5 ng/mL)? 1.77%

====

Tested on: normal primary NK cells, pool 1 (3 donors), resting (IL-2 0 ng/mL)
assayInfo: drug sensitivity score (DSS) (DSS units); higher = more sensitive; extreme values may be limits of the assay
assayConditions: 72 h
measurementKind: drug sensitivity score

Some solved cases for reference:
molecule | result
CC(C)N(CCCNC(=O)Nc1ccc(C(C)(C)C)cc1)C[C@H]1O[C@@H](n2cc(Br)c3c(N)ncnc32)[C@H](O)[C@@H]1O [SGC0946] (max concentration tested 10000 nM) | 2.93
CCCCCOC(=O)Nc1nc(=O)n([C@@H]2O[C@H](C)[C@@H](O)[C@H]2O)cc1F [Capecitabine] (max concentration tested 10000 nM) | 1.76

// moving on: another record for drug sensitivity score
Record request: drug sensitivity score value, item O=[N+]([O-])c1ccc2c(c1)S(=O)(=O)C=C2 [Stattic] (max concentration tested 50000 nM) 19.4

====

System: NKL (IL-2 2.5 ng/mL)
assayInfo: percent inhibition of viability; higher = more inhibition
assayConditions: 72 h; 10000 nM
measurementKind: percent inhibition of viability (%)
Give bare numbers, in %.

Some solved cases for reference:
compound | percent inhibition of viability [%]
CNNCc1ccc(C(=O)NC(C)C)cc1 [Procarbazine] (max concentration tested 10000 nM) | -16.7
c1ccc([C@H]2CN3CCSC3=N2)cc1 [Levamisole] (max concentration tested 10000 nM) | -10.6
Cc1nc(Nc2n[nH]c3c2CN(C(=O)N[C@H](CN(C)C)c2ccccc2)C3(C)C)c2sccc2n1 (max concentration tested 10000 nM) | 103

// moving on: another record for percent inhibition of viability
Record request: percent inhibition of viability value, item Nc1cccc2c1C(=O)N(C1CCC(=O)NC1=O)C2=O (centres undefined) [Pomalidomide] (max concentration tested 10000 nM) 21.2

// provenance: the supplement of paper PMC5908809
